Values compiled from patent US20060264369.

# measuredOn: von Willebrand factor full length (Homo sapiens, UniProt P04275 SEQ:764-2813)
# runDescription: filter; 19.2% bound at 100 nM vWF
# conditionInfo: tags: Calbiochem 681300; label: 5'-32P
pKd: −log10 of the molar value.

binder	pKd
CGUGCAGUGCCUUUGGCCGTGCGGTGCCUCCGUCACG (mixed, 2'-OMe/deoxy composite, single PS, 3'-idT) [ARC1530]	7.82
